- target entity: human CYP2D6 (Homo sapiens, UniProt P10635)
- Sequence (P10635 whole entry): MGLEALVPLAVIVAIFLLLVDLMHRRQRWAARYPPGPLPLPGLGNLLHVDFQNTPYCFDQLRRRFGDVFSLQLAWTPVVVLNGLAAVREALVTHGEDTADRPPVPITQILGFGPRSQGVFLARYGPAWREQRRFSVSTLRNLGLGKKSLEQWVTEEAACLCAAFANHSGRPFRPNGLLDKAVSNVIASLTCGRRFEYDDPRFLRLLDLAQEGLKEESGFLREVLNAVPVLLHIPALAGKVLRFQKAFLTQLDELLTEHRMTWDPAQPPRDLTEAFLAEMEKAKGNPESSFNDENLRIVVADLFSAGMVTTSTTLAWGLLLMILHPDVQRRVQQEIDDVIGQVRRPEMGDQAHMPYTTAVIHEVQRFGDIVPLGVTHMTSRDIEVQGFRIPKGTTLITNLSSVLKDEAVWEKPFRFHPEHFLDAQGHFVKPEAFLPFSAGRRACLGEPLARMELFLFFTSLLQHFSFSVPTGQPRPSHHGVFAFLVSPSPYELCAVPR
reported endpoint: IC50

compound="CC1(C)C(=O)NC(=O)N1c1nc2ccccc2n([C@H]2C[C@H]3CCC[C@@H](C2)N3[C@@H]2C[C@@H]3CCCC[C@@H](C3)C2)c1=O [Compound O19a]" value="> 20 µM"

Record Nc1ccn(-c2nc3ccccc3n([C@H]3C[C@H]4CCC[C@@H](C3)N4[C@@H]3C[C@@H]4CCCC[C@@H](C4)C3)c2=O)c(=O)n1 [Compound U068] ; system human CYP2D6 (Homo sapiens, UniProt P10635); IC50 = > 20 µM

Record O=C(O)Cn1cccc(-c2nc3ccccc3n([C@H]3C[C@H]4CCC[C@@H](C3)N4[C@H]3C[C@@H]4CCC[C@@H](C4)C3)c2=O)c1=O [R15a(iii)] ; system human CYP2D6 (Homo sapiens, UniProt P10635); IC50 = > 20 µM

----------
- target entity: human opioid receptor-like (ORL-1) (Homo sapiens)
- Sequence (P41146 whole entry): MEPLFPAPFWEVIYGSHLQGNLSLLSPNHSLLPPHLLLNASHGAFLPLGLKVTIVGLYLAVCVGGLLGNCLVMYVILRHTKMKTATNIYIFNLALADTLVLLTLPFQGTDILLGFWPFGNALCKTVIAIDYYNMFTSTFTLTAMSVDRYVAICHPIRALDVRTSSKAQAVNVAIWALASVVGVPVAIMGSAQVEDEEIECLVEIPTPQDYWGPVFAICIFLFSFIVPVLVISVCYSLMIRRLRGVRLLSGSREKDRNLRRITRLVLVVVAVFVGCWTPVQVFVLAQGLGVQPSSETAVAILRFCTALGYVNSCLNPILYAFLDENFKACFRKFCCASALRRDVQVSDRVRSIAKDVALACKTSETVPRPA
- procedure summary: In vitro ORL-1 receptor [35S]GTPγS functional assay
reported endpoint: EC50 (nM)
# value in nM; strip the unit string

Before answering, review these 2 worked examples.
compound="O=C(O)Cn1cccc(-c2nc3ccccc3n([C@H]3C[C@H]4CC[C@@H](C3)N4[C@H]3C[C@@H]4CCC[C@@H](C4)C3)c2=O)c1=O [Q13a(iii)]" value=255
compound=O=c1cnn(-c2nc3ccccc3n([C@H]3C[C@H]4CCC[C@@H](C3)N4C3CCCCCCC3)c2=O)c(=O)[nH]1 value=376

We next turn to a different compound, shown below.
Entry O=C(O)Cn1cccc(-c2nc3ccccc3n([C@H]3C[C@H]4CCC[C@@H](C3)N4C3CCCCCCCCC3)c2=O)c1=O [BB13c(iii)] , EC50 reported as 101
